// provenance: patent US20250154198A1

Protocol summary: Peptide stability in simulated gastric fluid (SGF)
Assay type: in vitro ADME
Condition set: pig, simulated gastric fluid (SGF) with porcine pepsin, Table 3-3, porcine pepsin, pH 1.2, 37° C., 10 μM, 4 h, read-out: SGF (% remaining 4 h)
Protocol: Determination of Peptide Stability in Simulated Gastric Fluid (SGF) and Simulated Intestinal Fluid (SIF) SGF was prepared by dissolving sodium chloride (0.2 g) in 50 mL of water. A volume of 0.7 mL of 10 M HCl was added to adjust the pH of the solution to 1.2 and the volume made up to 100 mL with water. […] The incubation was performed at 37° C. with gentle shaking. […] Percent remaining at each timepoint was calculated relative to timepoint zero based on absolute peak areas.
*1 amine or outer side, *2 acyl side, *3 side chain or, on linkers, in order; H or OH if unused. Where a SMILES comes first, the peptide text is derived from it. Bridges are numbered along the chain shown (N, C = ends). [ ]: non-standard residue; d: D form. 2Nal = N[C@@H](Cc1ccc2ccccc2c1)C(=O)O; AEF = NCCOc1ccc(C[C@H](N)C(=O)O)cc1; αMeL = CC(C)C[C@](C)(N)C(=O)O; CH2COCH2 = O=C(C[*:1])C[*:2]; 3Amb = NCc1cccc(C(=O)O)c1
Below, each entry is listed with its recorded remaining at 4 h, 10 μM.

Molecule	Readout unit	remaining at 4 h, 10 μM
CC(C)C[C@H]1NC(=O)[C@H](Cc2ccc3ccccc3c2)NC(=O)[C@H](Cc2ccc(OCCN)cc2)NC(=O)[C@@H]2CSCC(=O)CSC[C@H](NC(=O)[C@H](CO)NC(=O)c3cccc(c3)CNC(=O)CC[C@@H](C(=O)N[C@@H](Cc3ccc(O)cc3)C(N)=O)NC1=O)C(=O)N[C@@H](Cc1c[nH]c3ccccc13)C(=O)N[C@@H](CCC(N)=O)C(=O)N2 [Compound 46] ([3Amb]SCWQC[AEF][2Nal][dL]EY-NH2; linker 3-6 via CH2COCH2; lactam N-10)	%	66
CC(C)C[C@]1(C)NC(=O)[C@H](Cc2ccc3ccccc3c2)NC(=O)[C@H](Cc2ccc(OCCN)cc2)NC(=O)[C@@H]2CSCC(=O)CSC[C@H](NC(=O)[C@H](CO)NC(=O)c3cccc(c3)CNC(=O)CC[C@@H](C(=O)N[C@@H](CCCNC(=N)N)C(N)=O)NC1=O)C(=O)N[C@@H](Cc1c[nH]c3ccccc13)C(=O)N[C@@H](CCC(N)=O)C(=O)N2 [Compound 38] ([3Amb]SCWQC[AEF][2Nal][αMeL]ER-NH2; linker 3-6 via CH2COCH2; lactam N-10)	%	84
CC(=O)N[C@@H](CC(=O)O)C(=O)N[C@H]1CCC(=O)NCCCC[C@@H](C(=O)NCC(N)=O)NC(=O)[C@](C)(CC(C)C)NC(=O)[C@H](Cc2ccc3ccccc3c2)NC(=O)[C@H](Cc2c[nH]c3ccccc23)NC(=O)[C@@H]2CSCC(=O)CSC[C@H](NC(=O)[C@H](CO)NC1=O)C(=O)N[C@@H](Cc1c[nH]c3ccccc13)C(=O)N[C@@H](CCC(N)=O)C(=O)N2 [Compound 60] (Ac-DESCWQCW[2Nal][αMeL]KG-NH2; lactam 2-11; linker 4-7 via CH2COCH2)	%	0
